Target: UniProtKB P27338
Assay: Inhibition of human MAO-B expressed in baculovirus infected insect cell membranes using kynuramine as substrate preincubated for 30 mins followed by substrate addition measured after 15 to 20 mins by discontinuous fluorimetric method
pIC50: −log10 of the molar value.
PROPERTY: pIC50

O=C1/C(=C/c2ccc(OCCCN3CCCCC3)cc2)Cc2ccc(OCc3ccc(Br)cc3)cc21 : 6.63

(I) O=C1/C(=C/c2ccc(OCCCN3CCCCC3)cc2)Cc2cc(F)ccc21
(II) O=C1/C(=C/c2ccc(OCCCN3CCCCC3)cc2)Cc2cc(OCc3ccc(Br)cc3)ccc21
Smaller pIC50 value, I vs II ? Kindly give the label for the entry you pick. I
(I: 6.27, II: 6.58)

====

Molecular target: Amine oxidase [flavin-containing] A (Homo sapiens, UniProt P21397)
Sequence (P21397 whole entry): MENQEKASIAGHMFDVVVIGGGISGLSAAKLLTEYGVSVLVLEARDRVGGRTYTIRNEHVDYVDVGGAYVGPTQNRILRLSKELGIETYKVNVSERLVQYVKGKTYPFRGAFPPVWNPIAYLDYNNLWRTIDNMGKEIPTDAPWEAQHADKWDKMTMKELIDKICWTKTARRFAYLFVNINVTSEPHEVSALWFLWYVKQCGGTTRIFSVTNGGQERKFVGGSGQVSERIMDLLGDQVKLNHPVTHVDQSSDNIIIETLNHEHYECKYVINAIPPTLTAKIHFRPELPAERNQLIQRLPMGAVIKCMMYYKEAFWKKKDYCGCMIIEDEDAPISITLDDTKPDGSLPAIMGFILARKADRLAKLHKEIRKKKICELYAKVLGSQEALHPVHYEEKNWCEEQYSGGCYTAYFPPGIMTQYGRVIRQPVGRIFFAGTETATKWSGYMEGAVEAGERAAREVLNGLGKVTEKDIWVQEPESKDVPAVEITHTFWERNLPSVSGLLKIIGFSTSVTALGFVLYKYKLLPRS
Reported IC50 values are given for each entry in this list.

O=C1/C(=C/c2ccc(OCCCN3CCCCC3)cc2)Cc2cc(OCc3ccc(Br)cc3)ccc21 : > 10 µM
O=C(c1ccc(OCCCN2CCCCC2)cc1)C1CC1 : > 50 µM

// below: IC50 requested for another compound
Query: IC50; subject: "O=C1/C(=C/c2ccc(OCCCN3CCCCC3)cc2)Cc2ccc(OCc3ccc(Br)cc3)cc21" 5.51 µM

====

Target: Histamine H3 receptor (Homo sapiens, UniProt Q9Y5N1)
Sequence (Q9Y5N1 whole entry): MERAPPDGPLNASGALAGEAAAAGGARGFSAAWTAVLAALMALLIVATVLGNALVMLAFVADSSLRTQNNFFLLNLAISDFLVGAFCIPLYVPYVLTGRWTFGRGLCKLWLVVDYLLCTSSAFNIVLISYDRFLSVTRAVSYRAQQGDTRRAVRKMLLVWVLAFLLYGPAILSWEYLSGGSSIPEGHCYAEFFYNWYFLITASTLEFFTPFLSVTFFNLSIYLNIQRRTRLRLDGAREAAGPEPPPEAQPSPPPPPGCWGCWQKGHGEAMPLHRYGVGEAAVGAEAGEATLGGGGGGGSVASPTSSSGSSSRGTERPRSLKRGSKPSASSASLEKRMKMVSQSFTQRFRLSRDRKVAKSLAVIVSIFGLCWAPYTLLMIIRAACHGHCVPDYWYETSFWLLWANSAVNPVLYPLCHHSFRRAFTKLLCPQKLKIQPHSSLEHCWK
Experiment: Displacement of [3H]-N-alpha-methylhistamine from human H3R expressed in HEK293 cell membranes after 90 mins by liquid scintillation counting method
PROPERTY: Ki (nM)

(1) O=C1CCc2cc(OCCN3CCCCC3)ccc21
(2) O=C(c1ccc(OCCCN2CCCCC2)cc1)C1CC1
(3) O=C1/C(=C/c2ccccc2)Cc2ccc(OCCCN3CCCCC3)cc21
Put the listed items above in order, lowest Ki first. Reply with the labels, ordered as the question asks. 2, 3, 1

(1) O=C1CCc2cc(OCCCN3CCCCC3)ccc21
(2) O=C1/C(=C/c2ccc(OCCCN3CCCCC3)cc2)Cc2cc(F)ccc21
Smaller Ki value, 1 vs 2 ? Kindly give the label for the entry you pick. 2

====

Molecular target: UniProt P27338
Assay: Inhibition of human MAO-B expressed in baculovirus infected insect cell membranes at 10 uM using kynuramine as substrate by continuous spectrophotometric method relative to control
PROPERTY: inhibition at 10 µM

Use the examples below as a reference point.
O=C1/C(=C/c2ccccc2)Cc2ccc(OCCN3CCCCC3)cc21 : 76 to 100%
O=C1/C(=C/c2ccccc2)Cc2ccc(OCCCN3CCCCC3)cc21 : 51 to 75%
COc1ccc2c(c1)C(=O)/C(=C/c1ccc(OCCCN3CCCCC3)cc1)C2 : 51 to 75%
O=C1CCc2cc(OCCN3CCCC3)ccc21 : ≤ 25%
O=C1/C(=C/c2ccc(OCCCN3CCCCC3)cc2)Cc2cc(F)ccc21 : 76 to 100%

Query: inhibition at 10 µM; subject: "O=C1CCc2ccc(OCCCN3CCCCC3)cc21" 51 to 75%

Query: inhibition at 10 µM; subject: "O=C1CCc2ccc(OCCN3CCCC3)cc21" 26 to 50%

Query: inhibition at 10 µM; subject: "COc1ccc2c(c1)C/C(=C\c1ccc(OCCCN3CCCCC3)cc1)C2=O" 51 to 75%

Query: inhibition at 10 µM; subject: "O=C1/C(=C/c2ccccc2)Cc2cc(OCCCN3CCCCC3)ccc21" 51 to 75%

Query: inhibition at 10 µM; subject: "O=C1CCc2cc(OCCN3CCCCC3)ccc21" 26 to 50%

Query: inhibition at 10 µM; subject: "O=C1/C(=C/c2ccc(OCCCN3CCCCC3)cc2)Cc2ccccc21" 51 to 75%

Query: inhibition at 10 µM; subject: "O=C1CCc2cc(OCCCN3CCCCC3)ccc21" 26 to 50%

====

Species: Homo sapiens
Test: Selectivity index, ratio of IC50 for human MAO-A expressed in baculovirus infected insect cell membranes without preincubation with enzyme to IC50 for human MAO-B expressed in baculovirus infected insect cell membranes without preincubation with enzyme
PROPERTY: Ratio IC50

O=C1/C(=C/c2ccc(OCCCN3CCCCC3)cc2)Cc2cc(F)ccc21 : 4.8
O=C1/C(=C/c2ccc(OCCCN3CCCCC3)cc2)Cc2ccc(OCc3ccc(Br)cc3)cc21 : 3.7

====

Target: Amine oxidase [flavin-containing] B (Homo sapiens, UniProt P27338)
Sequence (P27338 whole entry): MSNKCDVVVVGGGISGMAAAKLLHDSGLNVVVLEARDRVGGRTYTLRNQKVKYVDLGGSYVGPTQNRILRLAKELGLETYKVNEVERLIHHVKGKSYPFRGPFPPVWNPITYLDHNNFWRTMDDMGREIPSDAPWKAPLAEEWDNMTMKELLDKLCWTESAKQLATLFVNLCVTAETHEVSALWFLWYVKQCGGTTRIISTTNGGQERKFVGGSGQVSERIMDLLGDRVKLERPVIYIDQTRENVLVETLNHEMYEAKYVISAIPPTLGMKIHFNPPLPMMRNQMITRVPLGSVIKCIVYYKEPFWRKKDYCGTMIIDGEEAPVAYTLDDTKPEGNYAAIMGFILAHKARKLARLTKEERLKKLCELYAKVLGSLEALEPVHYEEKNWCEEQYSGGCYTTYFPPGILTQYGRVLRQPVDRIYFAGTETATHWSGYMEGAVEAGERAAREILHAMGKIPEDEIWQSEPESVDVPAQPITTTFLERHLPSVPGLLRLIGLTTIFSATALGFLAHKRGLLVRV
Assay: Inhibition of human MAO-B expressed in baculovirus infected insect cell membranes using kynuramine as substrate after 15 to 20 mins by discontinuous fluorimetric method
PROPERTY: IC50 (µM)

O=C1/C(=C/c2ccc(OCCCN3CCCCC3)cc2)Cc2ccc(OCc3ccc(Br)cc3)cc21 : 1.46

(A) O=C(c1ccc(OCCCN2CCCCC2)cc1)C1CC1
(B) O=C1/C(=C/c2ccc(OCCCN3CCCCC3)cc2)Cc2cc(F)ccc21
(C) O=C1/C(=C/c2ccc(OCCCN3CCCCC3)cc2)Cc2cc(OCc3ccc(Br)cc3)ccc21
Write the entries in order, lowest recorded IC50 first. Reply with the labels, ordered as the question asks. C, B, A
(C: 0.276 µM, B: 1.93 µM, A: 3.88 µM)

====

Molecular target: Amine oxidase [flavin-containing] A (Homo sapiens, UniProt P21397)
Assay: Inhibition of human MAO-A expressed in baculovirus infected insect cell membranes at 10 uM using kynuramine as substrate by continuous spectrophotometric method relative to control
PROPERTY: inhibition at 10 µM

Use the examples below as a reference point.
O=C1CCc2cc(OCCCN3CCCCC3)ccc21 : ≤ 25%
O=C1CCc2cc(OCCN3CCCCC3)ccc21 : ≤ 25%

Query: inhibition at 10 µM; subject: "O=C1/C(=C/c2ccccc2)Cc2cc(OCCCN3CCCCC3)ccc21" ≤ 25%

Query: inhibition at 10 µM; subject: "O=C1CCc2cc(OCCN3CCCC3)ccc21" 26 to 50%

Query: inhibition at 10 µM; subject: "O=C1CCc2ccc(OCCN3CCCC3)cc21" ≤ 25%

Query: inhibition at 10 µM; subject: "O=C1/C(=C/c2ccccc2)Cc2ccc(OCCCN3CCCCC3)cc21" ≤ 25%

Query: inhibition at 10 µM; subject: "COc1ccc2c(c1)C/C(=C\c1ccc(OCCCN3CCCCC3)cc1)C2=O" ≤ 25%

Query: inhibition at 10 µM; subject: "O=C1/C(=C/c2ccccc2)Cc2ccc(OCCN3CCCCC3)cc21" ≤ 25%

Query: inhibition at 10 µM; subject: "O=C1/C(=C/c2ccc(OCCCN3CCCCC3)cc2)Cc2ccccc21" ≤ 25%

Query: inhibition at 10 µM; subject: "COc1ccc2c(c1)C(=O)/C(=C/c1ccc(OCCCN3CCCCC3)cc1)C2" 51 to 75%

Query: inhibition at 10 µM; subject: "O=C1CCc2ccc(OCCCN3CCCCC3)cc21" ≤ 25%
